Target: T1, recombinant mouse CTLA-4 protein (mouse, UniProt P09793 36-161)
T1 construct: Recombinant protein used as analyte in SPR/Octet; also called murine CTLA-4; mCTLA-4
Assay: SPR (Pioneer FE) or Octet (Red96e), 37 C; IgG captured by anti-human Fc or AHC sensor, mCTLA-4 as analyte
A collection of binders and their measured Kd
Give a bare numeral; the unit pM is implied.

[[record]]
binder = "IgG antibody 78-8D22 HC / 78-8 LC (antibody, V domains shown) VH: EVQLVESGGGLVQPGGSLRLSCAASGFTFSSYVMHWVRQAPGKGLEWVSAISWSGSGTYYADSVKGRFTISRDNSKNTLYLQMNSLRAEDTAVYYCARGRLFGLARYGEAFDVWGQGTLVTVSS VL: DIQMTQSPSSLSASVGDRVTITCQASKDISNYLNWYQQKPGKAPKLLIYDASNLETGVPSRFSGSGSGTDFTFTISSLQPEDIATYYCQQFNSFPLTFGQGTKVEIKR"
recorded_metric = "Kd"
unit_name = "pM"
quantitative_readout = 530


We now examine a further binder.
[Q] I'd like to know its Kd. The binder in question is IgG antibody 78-24D1V HC / 78-24 LC (antibody, V domains shown) VH: EVQLVESGGGLVQPGGSLRLSCAASGFTFTSYSMHWVRQAPGKGLEWVSGISGSGRSTSYADSVKGRFTISRDNSKNTLYLQMNSLRAEDTAVYYCARDLMAFNLVRAGGFDVWGQGTLVTVSS VL: DIQMTQSPSSLSASVGDRVTITCQASQDISNYLNWYQQKPGKAPKLLIYDASNLETGVPSRFSGSGSGTDFTFTISSLQPEDIATYYCQQGDAWPWTFGQGTKVEIKR
[A] 230
